- System under test: human ether-à-go-go-related gene (hERG) potassium channel (human)
- Sequence (Q12809 whole entry, looked up): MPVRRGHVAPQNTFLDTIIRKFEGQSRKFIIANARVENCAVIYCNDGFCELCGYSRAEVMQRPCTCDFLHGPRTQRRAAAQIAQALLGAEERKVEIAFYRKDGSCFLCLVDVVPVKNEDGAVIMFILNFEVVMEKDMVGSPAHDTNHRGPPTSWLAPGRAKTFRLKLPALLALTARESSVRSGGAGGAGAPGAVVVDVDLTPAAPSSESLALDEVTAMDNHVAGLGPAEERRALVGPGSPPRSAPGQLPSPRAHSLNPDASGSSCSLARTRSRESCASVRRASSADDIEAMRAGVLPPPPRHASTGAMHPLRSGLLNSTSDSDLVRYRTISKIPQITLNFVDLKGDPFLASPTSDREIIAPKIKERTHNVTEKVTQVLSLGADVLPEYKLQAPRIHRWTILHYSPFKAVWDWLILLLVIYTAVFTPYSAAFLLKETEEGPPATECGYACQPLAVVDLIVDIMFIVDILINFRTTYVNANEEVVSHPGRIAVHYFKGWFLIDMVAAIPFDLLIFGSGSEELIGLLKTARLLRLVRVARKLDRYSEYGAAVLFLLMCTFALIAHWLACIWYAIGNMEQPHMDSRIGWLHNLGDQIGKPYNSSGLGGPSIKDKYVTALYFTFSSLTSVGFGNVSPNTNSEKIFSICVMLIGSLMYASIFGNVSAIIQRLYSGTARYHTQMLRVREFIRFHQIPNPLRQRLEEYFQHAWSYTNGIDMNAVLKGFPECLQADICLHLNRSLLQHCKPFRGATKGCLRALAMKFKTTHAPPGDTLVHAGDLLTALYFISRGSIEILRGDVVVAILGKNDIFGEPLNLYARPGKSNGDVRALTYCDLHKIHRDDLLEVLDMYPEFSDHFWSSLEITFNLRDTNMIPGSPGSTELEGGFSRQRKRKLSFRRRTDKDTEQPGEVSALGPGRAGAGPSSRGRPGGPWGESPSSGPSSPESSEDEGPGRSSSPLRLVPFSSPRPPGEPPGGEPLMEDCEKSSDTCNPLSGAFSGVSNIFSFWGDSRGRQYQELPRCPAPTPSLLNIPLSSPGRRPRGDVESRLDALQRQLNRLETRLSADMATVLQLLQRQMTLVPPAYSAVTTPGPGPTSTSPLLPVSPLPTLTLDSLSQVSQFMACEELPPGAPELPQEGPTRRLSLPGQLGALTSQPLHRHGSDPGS
- Assay remarks: primary screen, population patch clamp on CHO cells stably expressing hERG; higher = less effect of the substance
About 2,200 (0.71%) of roughly 310,000 compounds showed an effect of 50% or more. Effects have a minus sign here. Shown is part of a subset that was picked to be rich in strong results.
Measured quantity: hERG current change (%, negative = inhibition) at 1uM (%)
Write the value in % as a bare number.

Use these answered entries as a reference point.
CC(C)CSc1nc2ccccc2[nH]1    13
CCOC(=O)CSc1nc(CC)nc2ccccc12    4.2
CCOC(=O)C1(CCCc2ccccc2)CCN(C(=O)C2CCCO2)CC1 (stereo not shown)    5.58

Here is the next item to consider.
## Task May I ask what hERG current change (%, negative = inhibition) at 1uM has been recorded for `Cc1ccc(NC(=O)CSc2sc3c(O)cc(=O)[nH]c3c2C#N)cc1C` ?
## Result 0.874

// data source = paper PMC4336329
